These measurements were taken from patent US20250027068.

tgt: pooled human IgG
Hi there, I'd appreciate the recorded Enzyme Activity Endpoint Assay: Fab′2 for every entry that follows.
Give bare numbers, in ng/µL.

PRT-560 (protein) MANQEIRYSEETPKTITSVWTKGVTPPTDFIYNEDVLHAPYIANQGWYDITKTFNGKDDLLCGAATAGNMLHWWFDQNKEQIERYLKKHPEKQKINFNGEQMFDVKEAIDTKDSQTDSALFEYFKDKAFPYLSTKHLGVFPDHVIDMFINGYRLSLTNHGPTPVKRQTKDPRGGIFDAVFTRGDQSKLLTSRHDFKEKTLKEISDLIKQELTEGKALGLSHTYANVRINHVINLWGADFDAEGNLEAIYVTDSDSNASIGMKKYYVGVNSAGKVAISAKEIEGDNIGAQVLGLFTLSTGQDIWEQTNLEHHHHHH | 210

**Query** Look at this protein and give its reported Enzyme Activity Endpoint Assay: Fab′2. PRT-2 (protein) MANQEIRYSEVTPYHVTSVWTKGVTPPAKFTQGEDVFHAPYVANQGWYDITKTFNGKDDLLCGAATAGNMLHWWFDQNKEKIEAYLKKHPDKQKIMFGDQELLDVRKVINTKGDQTNSELFNYFRDKAFPGLSARRIGVMPDLVLDMFINGYYLNVYKTQTTDVNRTYQEKDRRGGIFDAVFTRGDQSKLLTSRHDFKEKNLKEISDLIKKELTEGKALGLSHTYANVRINHVINLWGADFDSNGNLKAIYVTDSDSNASIGMKKYFVGVNSAGKVAISAKEIKEDNIGAQVLGLFTLSTGQDSWNQTN
**Result** 47
